Reference source: patent US20250248979A1

- Target Of Assay: UniProt P36969
- Sequence (P36969 28-197): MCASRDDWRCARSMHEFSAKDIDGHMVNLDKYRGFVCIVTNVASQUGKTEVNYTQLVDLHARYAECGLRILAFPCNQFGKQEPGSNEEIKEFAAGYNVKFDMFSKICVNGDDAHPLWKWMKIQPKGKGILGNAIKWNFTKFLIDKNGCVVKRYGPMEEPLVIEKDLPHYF
- Test Method Notes: GPX4 activity assay in cell lysates (NADPH-coupled)
- Format: biochemical
- Parameters: endogenous in cells; host or cells: A-673 cell lysate
- Run Conditions: 5 μM
Reported GPX4% inhibition at 5 μM is given for each of the following compounds.
Property Label: GPX4% inhibition at 5 μM (%)

substance_smiles=COc1ccc(F)c(-c2ccc3c(C(=O)NC(C)(C)COC(=O)CCl)nn(C)c3c2)c1 property_label="GPX4% inhibition at 5 μM" recorded_number=59.5
substance_smiles=COc1cc(-c2ccc3c(C(=O)NC(C)(C)COC(=O)CCl)nn(C)c3c2)cc(OC)c1OC property_label="GPX4% inhibition at 5 μM" recorded_number=59.6
substance_smiles=COc1cccc(OC)c1-c1ccc2c(C(=O)NC(C)(C)COC(=O)CCl)nn(C)c2c1 property_label="GPX4% inhibition at 5 μM" recorded_number=3.3
substance_smiles=Cn1nc(C(=O)NC(C)(C)COC(=O)CCl)c2ccc(-c3coc4ccccc34)cc21 property_label="GPX4% inhibition at 5 μM" recorded_number=62.2
substance_smiles=Cn1nc(C(=O)NC(C)(C)COC(=O)CCl)c2ccc(-c3ccc(C=CCCl)cc3)cc21 property_label="GPX4% inhibition at 5 μM" recorded_number=35.9
